tested on: HEK293T (UBE3A T485A transfected, BAR Wnt reporter); assay: Renilla luciferase signal (cell health) relative to plate median (fold (linear ratio)); higher = higher Renilla signal; details: concentration: 0.01 uM; 24 h
Whole data set: some 1,100 compounds, median “Renilla luciferase signal (cell health) relative to plate median” near 0.97, cut for the highest 2% near 1.6. This is one part of a sample in which the highest values are shown more often than they occur.
Measure: Renilla luciferase signal
Give your answer as a number; write no unit.

Lab request: please report Renilla luciferase signal under test system HEK293T (UBE3A T485A transfected, BAR Wnt reporter) for Oc1cc(Cl)ccc1Oc1ccc(Cl)cc1Cl
0.941

Next up: C[N+]1(C)CCCCC1.[Cl-] [Mepiquat chloride]
1.1

Next up: CC(C)(C)C(O)C(Oc1ccc(Cl)cc1)n1cncn1 (centres undefined)
1.01

Next up: Cc1ccn2nc(S(=O)(=O)Nc3c(F)cccc3F)nc2n1
0.963

Next up: CCOP(=S)(Oc1cnc(C(C)(C)C)nc1)OC(C)C (centres undefined)
1.07

Next up: O=C(Nc1ccccc1)Nc1cnns1
1.1

Next up: COc1cc(OC)nc(Sc2cccc(Cl)c2C(=O)[O-])n1.[Na+] [Pyrithiobac-sodium]
1.11

Next up: CC(C)(C)c1ccc(CSc2cnn(C(C)(C)C)c(=O)c2Cl)cc1
1.05

Next up: Cc1c(F)c(F)c(COC(=O)C2C(/C=C(\Cl)C(F)(F)F)C2(C)C)c(F)c1F (centres undefined)
0.953

Next up: CNC(=O)N(C)c1nnc(C(C)(C)C)s1
1.19

Next up: CC1(c2ccc(Oc3ccccc3)cc2)OC(=O)N(Nc2ccccc2)C1=O (centres undefined)
1.07

Next up: CC(C)N(C(=O)SCC(Cl)=C(Cl)Cl)C(C)C [Tri-allate]
1.05

Next up: CC1=NNC(=O)N(/N=C/c2cccnc2)C1
0.89

Next up: CCCOc1nn(C(=O)[N-]S(=O)(=O)c2ccccc2C(=O)OC)c(=O)n1C.[Na+] [Propoxycarbazone-sodium]
1.17

Next up: CC(C)=CC1C(C(=O)OCc2coc(Cc3ccccc3)c2)C1(C)C (centres undefined)
1.12

Next up: COC(=O)C(C)Oc1ccc(Oc2ccc(Cl)cc2Cl)cc1 (centres undefined)
1.01

Next up: Fc1ccc(Oc2ccnc3cc(Cl)cc(Cl)c23)cc1
0.918

Next up: CCOP(=S)(OCC)Oc1ccc([N+](=O)[O-])cc1
1.03

Next up: CN1C2CC(OC(=O)C(CO)c3ccccc3)CC1C1OC12 (centres undefined)
0.78
